Value source: the supplement of paper PMC10567573

Some sequences, each annotated with its measured protein stability index.
# assay_summary: protein stability index of a GFP-peptide fusion (GPS, HEK-293T) (PSI 1-6); higher = more stable;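 further: 24-mer peptide tiles fused after GFP, lentivirally expressed, FACS-sorted into six equal bins by GFP/DsRed ratio, decoded by Illumina sequencing, PSI is the read-weighted mean bin number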
# test_settings: treatment: MLN4924 1 uM, 8 h; c terminus: a fixed tail appended

| ordered_residues | protein stability index |
| --- | --- |
| DYEFRVVAVNNIGRGPPSEPVLTQ [PTPRD] | 3.04 |
| AYDFPSPEWDTVTPEAKDLINKML [CAMK2A] | 3.58 |
| NPIQKEEDEGVDLSEGSSNEDEDL [SPANXN3] | 4.95 |
| AMAIINGSLYVFGGTTGYIYSTDL [KLHDC10] | 2.74 |
| AKTFHLVNPNGQKQQLVDAFLKLA [FAN1] | 2.05 |
| MTEWKHQRITKQLEKWMQKNVEEN [GLT8D2] | 3.97 |
| LVAFVLLNECVGTAYWALAGSIGG [SLC22A15] | 2.86 |
| PGFSTLSLADQMSLLQSAWMEILI [ESRRG] | 2.29 |
| YHSQDELGGFSHWGRLTSYSGGGY [PKD2L1] | 2.52 |
| SCDDLMGGGGLHSVGTYIIDLLTF [GFOD1] | 2.41 |
| PVLSGAELEKAHLALIDYLTQKRS [VPS39] | 3.38 |
| VIRGLNTIPLFVQLLYSPIENIQR [CTNNB1] | 2.68 |
| GGIVTDTPASNHLPGWEDIESKIP [SLC19A2] | 4.87 |
| AKRLLDADDAAAVAAKCPRLSECS [TRIB1] | 4.11 |
| SCCFDPDSQRVASVSLDRCIKIWD [WDR88] | 2.57 |
| DYSPYYKTIEELRDKILTATIENN [KRT13] | 3.11 |
| EQELYNNFVYNSPRGYFHTFAGDT [WASL] | 2.78 |
| SSPQGVQLDIASQSLDQEILLKVK [BCL2L13] | 3.83 |
| GCNSVLIQFATPNDFCSFYNILKT [CARM1] | 2.84 |
| ACRVTELQQQPLCTSVNTIYDNAV [LRRC59] | 2.61 |
| GSAPNSPMALLTIGSSSEKEIDDV [TFE3] | 5.55 |
| AAPFRFVARPVRFPREHQFFEDGD [ZNF511] | 3.28 |
| MTEKQQEEAEWESINVLLMMHGLK [CEP70] | 2.73 |
| FIYYENMLLGVPRLRQLKVRNDSC [PKD2L1] | 2.19 |
| ELKKAAYDIEVNTRRAQADLAYQL [FLOT1] | 3.3 |
| RLRVELECEEGELSFYDAERHCHL [TRIM35] | 3.75 |
| LEKDFSIYGGELGPMMKLKRHFVA [ACSBG2] | 2.26 |

###

Some sequences, each annotated with its measured protein stability index.
# assay_summary: protein stability index of a GFP-peptide fusion (GPS, HEK-293T) (PSI 1-6); higher = more stable
# test_settings: treatment: DMSO; c terminus: a fixed tail appended
measure_name: protein stability index

| ordered_residues | measure_name | quantitative_readout |
| --- | --- | --- |
| LLRTARVRRECWFLPTALLCAYGF [SLC19A2] | protein stability index | 2.54 |
| TLDVYNPFETREPPPAYEPPAPAP [SCAMP3] | protein stability index | 4.51 |
| LEDELDKSVQGTGLAFIAFTEAMT [SLC6A17] | protein stability index | 2.73 |
| NGLEDIDRILERIEDSTGLNRPGP [TCF25] | protein stability index | 4.48 |
| LITIATFQIAANLSMERYALVFGV [SLC19A2] | protein stability index | 3.02 |
| KFLVGTVGSDPLIKSDEECRDLVD [KLHL20] | protein stability index | 4.41 |
| SAERYNPRTNQWSPVVAMTSRRSG [KLHL20] | protein stability index | 4.22 |
| ETRVWHRRDGKWQIVHFHRSGAPS [CAMK2A] | protein stability index | 2.95 |
| ADYSAALDPAYTTLEFENVQVLTM [HNF4A] | protein stability index | 2.75 |
| PIMAKEGQLYAMELQGFWMDIGQP [GMPPB] | protein stability index | 2.23 |
| LVDQSKKANSPLKGHERTVQYLQH [VPS39] | protein stability index | 4 |
| CRRSIRSALGRQRLQDISSLPLPQ [SPSB4] | protein stability index | 3.03 |
| KAFYKRYRLTEHERAHKGEKPYGC [ZNF649] | protein stability index | 3.62 |
| VRKKERGREEKCVWKHGITPPLKN [TAF7L] | protein stability index | 3.85 |
| MQVLVTAISPGRFPEALDELPLPP [ANKRD9] | protein stability index | 2.17 |
| TASLIEDIDKKHLVLLRDGRTLIG [LSM1] | protein stability index | 2.83 |
| RDYPSSRDTRDYAPPPRDYTYRDY [RBMX] | protein stability index | 2.87 |
| SLVLPWSFPLEWAPQNLTRWTFEK [TOR1AIP2] | protein stability index | 2.14 |
| AYPLELQGQPDPAPRPGPPAGTPP [MOSPD3] | protein stability index | 5.14 |
| HHVPGGGNVKIDSQKLNFREHAKA [MAP2] | protein stability index | 4.3 |
| EGGEGEKEGEGEVGGEAVEVEEVE [TRIM55] | protein stability index | 5.66 |
| LVAFVLLNECVGTAYWALAGSIGG [SLC22A15] | protein stability index | 3.05 |
| VKEELSQKFDTLYAILDEKKSELL [TRIM63] | protein stability index | 3.6 |
| TYKLKCKALQEENRDLRKASVTIQ [CCDC6] | protein stability index | 3.64 |
| FMRTDNTCVNLLLEASNYQMMPYM [KLHL13] | protein stability index | 2.46 |
| PYKCVQPDCGKAFVSRYKLMRHMA [PLAGL1] | protein stability index | 2.23 |
| YKQLGSAGEGLPQVYYFGPCGKYN [CSNK1G1] | protein stability index | 3.05 |
| TSRGGPWVGTGLAAALAGLVGLAT [CPOX] | protein stability index | 1.89 |
| VYIFATCLGLSYDGLLGDNQIMPK [MAGEA6] | protein stability index | 2.82 |
| GSSRPCLDFLQEVTRQPRNLQDLC [ASB7] | protein stability index | 3.9 |
| VDHQGVSWYHWKGFEFSVPFTEMK [TNXB] | protein stability index | 2.45 |
| YWGSPEEQSLLSRWNPWSTEVPYA [TPRG1] | protein stability index | 2.09 |
| SLNSTFGSTNLTGLFFPPQLNGTA [NFE2L1] | protein stability index | 2.52 |
| PTGPRRGRDELGGGRRPGTSPALL [CDKN1A] | protein stability index | 4.62 |
| VQRVMAQALGIPATECEFVGSLPV [LPCAT4] | protein stability index | 2.78 |
| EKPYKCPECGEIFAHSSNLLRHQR [ZNF263] | protein stability index | 3.07 |
| LAHLGRHMEALEIAANLENKATNT [C8orf76] | protein stability index | 4.22 |
| FPAYTQSTASTTSTTNSTAAKPAA [ZNF207] | protein stability index | 4.68 |
| ETPNSLNTTVIPNGSMAMGTVPGQ [LYSMD4] | protein stability index | 4.43 |
| IWEQRSATVVMMTKLEERSRVKCD [PTPRD] | protein stability index | 3.29 |
| VKFISNPPSMVAAGSVVAAVQGLN [CCND1] | protein stability index | 2.43 |
| IQDNGTGIRKEDLDIVCERFTTSK [MLH1] | protein stability index | 4.17 |
| HMESRMVTETEETQEKKAESKEPI [SDE2] | protein stability index | 5.48 |
| LNPHIHLMGDESACIAYIRITQYL [CAMK2A] | protein stability index | 2.8 |
| SDKDKAVGIFNTVINPMLNPIIYS [OR3A1] | protein stability index | 2.54 |
| EEDFDSEQLSVLASCLQELFKAHF [INTS3] | protein stability index | 2.24 |
| MLDMKVNPIQGLASKWDYEKNEWK [COX4I1] | protein stability index | 3.75 |
| NGSGDMIFEGNSEKEIPVLNELPV [CPXM2] | protein stability index | 4.79 |
| DNPANRSLVLPWSFPLEWAPQNLT [TOR1AIP2] | protein stability index | 2.87 |
| GLPFILRPTSCWQLDWDELETNQQ [M1AP] | protein stability index | 2.62 |
| TSSSTVVSTQRSQDHFHVFVGDLS [TIA1] | protein stability index | 3.34 |
| VIRGLNTIPLFVQLLYSPIENIQR [CTNNB1] | protein stability index | 2.76 |
| GSAVARAVCKATTHEVMGPKKKHL [SNAP91] | protein stability index | 4.58 |
